The values you see were collected from patent US20260055083A1.

Molecular target: APOL1 G2 (Homo sapiens, UniProt O14791, DEL388-389)
Sequence (O14791 with tags, fused parts or gaps DEL388-389): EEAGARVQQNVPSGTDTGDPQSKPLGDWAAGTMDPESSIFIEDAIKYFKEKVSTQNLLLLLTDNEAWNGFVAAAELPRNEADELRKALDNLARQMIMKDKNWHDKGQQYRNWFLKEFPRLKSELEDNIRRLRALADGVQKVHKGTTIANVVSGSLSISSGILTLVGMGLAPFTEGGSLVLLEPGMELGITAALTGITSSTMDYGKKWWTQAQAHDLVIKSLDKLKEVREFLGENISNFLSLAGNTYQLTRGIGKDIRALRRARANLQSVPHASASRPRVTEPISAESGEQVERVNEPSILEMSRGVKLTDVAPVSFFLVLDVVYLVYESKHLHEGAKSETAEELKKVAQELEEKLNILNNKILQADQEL
Assay: APOL1 G2 HEK293 rescue of cell death caused by overexpression of APOL1 (CellTiter-Glo)
Details: HEK293/T-REx APOL1 G2 clone #2, doxycycline induction, 17 hours, CellTiter-Glo luminescence; reversal of cell death; geometric mean of at least 2 assay runs
Measured EC50, listed per entry for reference.
readout: EC50 (nM)

>>> df
                                   compound  unit_info  measurement
0  C[C@@H]1C[C@H](COc2ccc(S(C)(=O)=O)cc2)CN1C1CCc2c(Cl)cccc2C1 (stereo partly shown) [Compound 88]         nM          215
1  CC(=O)N(C)CCS(=O)(=O)c1ccc(OC[C@H]2C[C@@H](C)N(CCc3cccc(C#N)c3)C2)cc1 [Compound 67]         nM         50.3
2  CS(=O)(=O)c1ccc(OC[C@H]2C[C@H]3CCCC(Cc4cc(Cl)cc(C#N)c4)N3C2)cc1 (single isomer, unassigned) [Compound 125]         nM          449
3  C[C@@H]1C[C@H](COc2ccc(S(=O)(=O)CCCS(C)(=O)=O)cc2)CN1C1CCc2ccc(C#N)cc2C1 (single isomer, unassigned) [Compound 34]         nM         86.9
